These entries and their values trace back to PubChem BioAssay (NCI).

- System: HT29 colon
- Method description: NCI-60 one-dose screen, 48 h (100 = growth as untreated, 0 = no growth, -100 = all killed)
- Measurement conditions: 10 µM unless noted
- Experimental: Growth inhibition of the HT29 human tumor cell line is measured as a screen for anti-cancer activity. Cells are grown in 96 well plates and exposed to the test compound for 48 hours. Compounds are tested at a single concentration, which is 10^-5 M for most compounds. The reported endpoint is percent growth (GI% or GIPRCNT), where numbers from 0 - 100% represent growth inhibition, and numbers from -100% - 0 represent cell death. For example, a value of 40 represents 60% growth inhibition. […]
The panel holds about 83,000 compounds, 20% with a hit somewhere; the sample as a whole holds those more often.
Record form. Attribute: growth. Fill in for each entry.
Give bare numbers, in %.

Observe how each entry below is paired with its result.
Molecule	Experimental target	growth / %
COc1cc2c(cc1O)CC[C@@H]1[C@@H]2CC[C@]2(C)[C@@H](NCCN(C)C)CC[C@@H]12	HT29 colon	-91.9
C(=C\c1nccc2c1[nH]c1ccccc12)/c1ccccc1	HT29 colon	1.31
Nc1ccc(S(=O)(=O)O)c2ccc(N=Nc3ccc(N=Nc4ccc(S(=O)(=O)O)cc4)c4ccccc34)c(O)c12	HT29 colon	103
CC[N+](CC)=c1sc2c(s1)C(c1ccc(Cl)cc1)Oc1ccc(Cl)cc1-2 (centres undefined)	HT29 colon	0.814
OCCN1CCN(c2nc(Nc3ccc(-c4nc5ccccc5[nH]4)cc3)c3cn[nH]c3n2)CC1	HT29 colon	-91.4
Cc1ccc2c(c1)C(=O)/C(=C/c1cccc(OCC(=O)c3ccc(Cl)cc3)c1)CS2	HT29 colon	87.9
CNc1ccc(-c2cc(=O)oc3ccc(Cl)cc23)cc1	HT29 colon	-2.77
CCOC(=O)c1sc2nc(-c3cccc(OC)c3)nc(N3CCOCC3)c2c1C	HT29 colon	89.9

// switching to the query molecule
Specify measured growth for COc1cc(C(=O)Oc2ccccc2OC(=O)c2cc(OC)c(OC)c(OC)c2)cc(OC)c1OC .
110
